Property: Biodistribution Muscle; scope: individual molecules
# Tested on: LNCaP tumor-bearing male CB-17 SCID mice
# PROCEDURE_TEXT: Biodistribution 1 h p.i. with competition (co-injection of 2-PMPA)
# Format: in vivo
# RUN_PARAMETERS: co-injected with 2-PMPA (8 mg/kg), n = 3
# Experimental: LNCaP tumor xenografts were established in 6–8 weeks old male CB-17 SCID mice as described previously. 1–3 MBq (0.2 nmol) of the [^18F, ^natGa]rhPSMA inhibitors were injected into the tail vein of LNCaP tumor-bearing male CB-17 SCID mice that were sacrificed 1 h post injection (p.i.) (n = 4 for 7.1, n = 5 for 7.2, n = 4 for 7.3, n = 5 for 7.4 and n = 3 for 7). Selected organs were removed, weighed, and measured in a γ-counter. […]
Write the number in % ID/g without appending the unit.

The examples below pair each entry with its known result.
- CC(C)(C)[Si]([18F])(c1ccc(C(=O)NC[C@@H](NC(=O)CC[C@H](C(=O)O)N2CCN(CC(=O)[O-])CCN(CC(=O)[O-])CCN(CC(=O)[O-])CC2)C(=O)N[C@H](CCCCNC(=O)CCC(=O)NCCC[C@@H](NC(=O)CC[C@H](NC(=O)N[C@@H](CCC(=O)O)C(=O)O)C(=O)O)C(=O)O)C(=O)O)cc1)C(C)(C)C.[Ga+3] [[^18F, ^natGa]rhPSMA-7.1]: 0.17
- CC(C)(C)[Si]([18F])(c1ccc(C(=O)NC[C@@H](NC(=O)CC[C@@H](C(=O)O)N2CCN(CC(=O)[O-])CCN(CC(=O)[O-])CCN(CC(=O)[O-])CC2)C(=O)N[C@H](CCCCNC(=O)CCC(=O)NCCC[C@@H](NC(=O)CC[C@H](NC(=O)N[C@@H](CCC(=O)O)C(=O)O)C(=O)O)C(=O)O)C(=O)O)cc1)C(C)(C)C.[Ga+3] [[^18F, ^natGa]rhPSMA-7.3]: 0.09
- CC(C)(C)[Si]([18F])(c1ccc(C(=O)NC[C@H](NC(=O)CC[C@H](C(=O)O)N2CCN(CC(=O)[O-])CCN(CC(=O)[O-])CCN(CC(=O)[O-])CC2)C(=O)N[C@H](CCCCNC(=O)CCC(=O)NCCC[C@@H](NC(=O)CC[C@H](NC(=O)N[C@@H](CCC(=O)O)C(=O)O)C(=O)O)C(=O)O)C(=O)O)cc1)C(C)(C)C.[Ga+3] [[^18F, ^natGa]rhPSMA-7.2]: 0.09

# Biodistribution Muscle (molecule: CC(C)(C)[Si]([18F])(c1ccc(C(=O)NC[C@H](NC(=O)CC[C@@H](C(=O)O)N2CCN(CC(=O)[O-])CCN(CC(=O)[O-])CCN(CC(=O)[O-])CC2)C(=O)N[C@H](CCCCNC(=O)CCC(=O)NCCC[C@@H](NC(=O)CC[C@H](NC(=O)N[C@@H](CCC(=O)O)C(=O)O)C(=O)O)C(=O)O)C(=O)O)cc1)C(C)(C)C.[Ga+3] [[^18F, ^natGa]rhPSMA-7.4] ) is 0.20

Data credit: paper PMC7721954
